tested on: Plasma; test: Anticoagulant activity in pooled human plasma assessed as activated partial thromboplastin time at 0.1 mg/ml; type: ADME, cell-free
APTT listing for selected molecules.
measured property: APTT (s)

record smiles	measured property	recorded value
CC(C)CCC[C@@H](C)[C@H]1CC[C@H]2[C@@H]3CC[C@H]4C[C@@H](OCc5cn([C@@H]6O[C@H](COS(=O)(=O)[O-])[C@@H](O[C@H]7O[C@H](COS(=O)(=O)[O-])[C@@H](OS(=O)(=O)[O-])[C@H](OS(=O)(=O)[O-])[C@H]7OS(=O)(=O)[O-])[C@H](OS(=O)(=O)[O-])[C@H]6OS(=O)(=O)[O-])nn5)CC[C@]4(C)[C@H]3CC[C@]12C.[Na+].[Na+].[Na+].[Na+].[Na+].[Na+].[Na+]	APTT	40.3
CC(C)CCC[C@@H](C)[C@H]1CC[C@H]2[C@@H]3CC[C@H]4C[C@@H](OCc5cn([C@@H]6O[C@H](COS(=O)(=O)[O-])[C@@H](O[C@@H]7O[C@H](COS(=O)(=O)[O-])[C@H](OS(=O)(=O)[O-])[C@H](OS(=O)(=O)[O-])[C@H]7OS(=O)(=O)[O-])[C@H](OS(=O)(=O)[O-])[C@H]6OS(=O)(=O)[O-])nn5)CC[C@]4(C)[C@H]3CC[C@]12C.[Na+].[Na+].[Na+].[Na+].[Na+].[Na+].[Na+]	APTT	39.6
